biological target: KRAS WT (Homo sapiens (Human), UniProt P01116+P62937); assay: Ras-Raf (BRAF RBD) disruption / FRET / MOA assay, KRAS WT; assay type: biochemical; conditions: read-out: IC50* KRAS WT FRET data
Sequence (P01116-2 other isoform, or with tags, fused parts or gaps): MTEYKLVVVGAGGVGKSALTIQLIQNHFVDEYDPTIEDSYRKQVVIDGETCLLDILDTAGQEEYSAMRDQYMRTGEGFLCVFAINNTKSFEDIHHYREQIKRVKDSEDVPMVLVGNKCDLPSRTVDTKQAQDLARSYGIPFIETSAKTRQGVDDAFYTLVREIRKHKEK
Sequence (P62937 whole entry): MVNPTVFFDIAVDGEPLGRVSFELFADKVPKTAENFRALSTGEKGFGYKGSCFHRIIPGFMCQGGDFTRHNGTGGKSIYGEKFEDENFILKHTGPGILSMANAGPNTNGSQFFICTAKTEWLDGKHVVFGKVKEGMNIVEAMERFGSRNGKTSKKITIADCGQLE
pIC50: −log10 of the molar value.
Could you please report measured pIC50 for the items listed next?

Exercise: Bench note: what pIC50 did CCn1c(-c2cccnc2[C@H](C)OC)c2c3cc(ccc31)-c1nc(cs1)C[C@H](NC(=O)[C@H](C1CCCC1)N(C)C(=O)[C@H]1CCN(C(=O)C#CC(C)(C)N3CCC3)C1)C(=O)N1CCC[C@H](N1)C(=O)OCC(C)(C)C2 (atropisomer, axis not shown) show?
Solution: 5.00 to 6.00

Exercise: Moving on to the next compound: `CCn1c(-c2cccnc2[C@H](C)OC)c2c3cc(ccc31)-c1cccc(c1)C[C@H](NC(=O)[C@H](C(C)C)N1CC[C@@]3(CCN(C(=O)C#C[C@@H]4COCCN4C4COC4)C3)C1=O)C(=O)N1CCC[C@H](N1)C(=O)OCC(C)(C)C2`
Solution: 5.00 to 6.00

----------
Could you please report measured pIC50 for the items listed next?
biological target: NRAS WT (Homo sapiens (Human), UniProt P01111+P62937); assay: Ras-Raf (BRAF RBD) disruption / FRET / MOA assay, NRAS WT; format: biochemical; conditions: read-out: IC50* NRAS WT FRET data
Sequence (P01111 whole entry): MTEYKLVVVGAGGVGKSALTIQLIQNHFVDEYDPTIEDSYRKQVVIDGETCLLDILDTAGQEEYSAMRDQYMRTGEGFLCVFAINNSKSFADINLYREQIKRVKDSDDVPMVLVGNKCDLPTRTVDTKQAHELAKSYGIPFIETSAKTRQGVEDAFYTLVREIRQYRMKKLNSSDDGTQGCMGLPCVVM
Sequence (P62937 whole entry): as the sequence (P62937 whole entry) above
pIC50: −log10 of the molar value.

Exercise: Bench note: what pIC50 did C=CC(=O)C1CC[C@H](C(=O)N(C)[C@H](C(=O)N[C@H]2Cc3cc(O)cc(c3)-c3ccc4c(c3)c(c(-c3cnn(C)c3[C@H](C)OC)n4CC)CC(C)(C)COC(=O)[C@@H]3CCCN(N3)C2=O)C(C)C)C1 (stereo partly shown) [Example A166] show?
Solution: 6.00 to 7.00

Exercise: Moving on to the next compound: C=CC(=O)N(C)CCN1CCN(C(=O)N(C)[C@H](C(=O)N[C@H]2Cc3nc(cs3)-c3ccc4c(c3)c(c(-c3cccnc3[C@H](C)OC)n4CC)CC(C)(C)COC(=O)[C@@H]3CCCN(N3)C2=O)C(C)C)CC1 (atropisomer, axis not shown) [Example A630]
Solution: 6.00 to 7.00

Exercise: Moving on to the next compound: CCn1c(-c2cccnc2[C@H](C)OC)c2c3cc(ccc31)N1CCO[C@@H](C[C@H](NC(=O)[C@@H](COC3CCN(C(=O)C#CC(C)(C)N(C)C)CC3)C(C)C)C(=O)N3CCC[C@H](N3)C(=O)OCC(C)(C)C2)C1 (atropisomer, axis not shown) [Example A643]
Solution: < 5.00

Exercise: Moving on to the next compound: C=CC(=O)N1CCO[C@]2(CCN(C(=O)N(C)[C@H](C(=O)N[C@H]3Cc4nc(cs4)-c4ccc5c(c4)c(c(-c4cccnc4[C@H](C)OC)n5CC(F)(F)F)CC(C)(C)COC(=O)[C@@H]4CCCN(N4)C3=O)C(C)C)C2)C1 (atropisomer, axis not shown) [Example A593]
Solution: 6.00 to 7.00

----------
target: K-Ras G12C (Homo sapiens (Human), UniProt P01116+P62937, G12C); assay: Ras-Raf (BRAF RBD) disruption / FRET / MOA assay, KRAS G12C; assay type: biochemical; details: KRAS G12C; Ras-Raf disruption/FRET/MOA assay; read-out: IC50* KRAS G12C FRET data
Sequence (P01116-2 other isoform, or with tags, fused parts or gaps G12C, one chain of several): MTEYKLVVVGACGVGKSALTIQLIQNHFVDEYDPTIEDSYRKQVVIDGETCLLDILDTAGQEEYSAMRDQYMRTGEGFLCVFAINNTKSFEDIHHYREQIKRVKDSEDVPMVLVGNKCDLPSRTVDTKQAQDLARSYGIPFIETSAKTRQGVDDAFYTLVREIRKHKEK
experimental endpoint: IC50

Exercise: Bench note: what IC50 did CO[C@@H](C)c1ncccc1-c1c2c3cc(ccc3n1CC(F)(F)F)-c1csc(n1)C[C@H](NC(=O)[C@H](C(C)C)N(C)C(=O)N1C[C@@H]3OCCN(C(=O)/C=C/C(F)F)[C@@H]3C1)C(=O)N1CCC[C@H](N1)C(=O)OCC(C)(C)C2 (atropisomer, axis not shown) [Example A572] show?
Solution: 10 to 100 nM

Exercise: Moving on to the next compound: C=CC(=O)N1C[C@H]2CN(C(=O)N(C)[C@H](C(=O)N[C@H]3Cc4nc(cs4)-c4ccc5c(c4)c(c(-c4cccnc4[C@H](C)OC)n5CC)CC(C)(C)COC(=O)[C@@H]4CCCN(N4)C3=O)C(C)C)[C@H]2C1 (atropisomer, axis not shown) [Example A686]
Solution: 10 to 100 nM

Exercise: Moving on to the next compound: C=CC(=O)N1CC[C@H](C(=O)N(CC)[C@H](C(=O)N[C@H]2Cc3cccc(c3)-c3ccc4c(c3)c(c(-c3cccnc3[C@H](C)OC)n4CC)CC(C)(C)COC(=O)[C@@H]3CCCN(N3)C2=O)C(C)C)C1 (atropisomer, axis not shown) [Example A399]
Solution: 100 to 1000 nM

Exercise: Moving on to the next compound: CCn1c(-c2cccnc2[C@H](C)OC)c2c3cc(ccc31)-c1csc(n1)C[C@H](NC(=O)[C@H](C(C)C)N(C)C(=O)N1CCN(C(=O)/C=C/CN3CCOCC3)C3(CC3)C1)C(=O)N1CCC[C@H](N1)C(=O)OCC(C)(C)C2 (atropisomer, axis not shown) [Example A665]
Solution: 10 to 100 nM
